tested on: Plasmodium falciparum; assay: Calibr Malaria Delayed Death Assay SOP; type: functional, organism-based; parameters: scale not given: in the data most compounds retested in dose-response had high values; conditions: concentration 4.99e-06 (unit not given; other assays of the set use mol/L)
Screen size: about 38,000 compounds; about 1,200 (3.2%) showed an effect of 50% or more. The median lay at about -58%. For the sample, strong results were picked, then their nearest neighbours and some compounds at random.
Percent Effect values by entry
observable: Percent Effect

* Cc1nc(C)n(CC2CCCN2CC(=O)Nc2cccnc2)n1 (configuration not stated) | -55.47%
* COC(C)(CNS(=O)(=O)c1cn(C)cn1)c1ccccc1F (configuration not stated) | -43.86%
* CN1CCCC1c1ccc(C(=O)Nc2c3c(nn2C)CCC3)s1 (configuration not stated) | -68.39%
* CNCc1cc(F)ccc1Oc1ccc(F)cc1 | 15.63%
* CCN(Cc1ccncc1)C(=O)CCn1c(C)cc2ccccc21 | 55.24%
* CCCOc1cc(C)ccc1NC(=O)NCCNC(=O)C(C)C | -67.23%
* Cc1cc2ccccc2n1CCC(=O)NCCN(C)S(C)(=O)=O | -87.62%
* O=C(Nc1cnc(Oc2ccccc2)nc1)C1CC1 | -34.92%
* CC(C)CN(C(=O)Nc1cccnc1)C1CC1 | -3.552%
* CC(C)CN1CCCC1c1ccc(C(=O)Nc2cc[nH]n2)s1 (configuration not stated) | 42.59%
* Cc1c(CN2CCCC(C(=O)Nc3ccccc3)C2)cc(C#N)n1C (configuration not stated) | 39.8%
* CC(C)CN1CCCC1c1ccc(C(=O)Nc2cn(C)nn2)s1 (configuration not stated) | 51.14%
